- target-entity: 17-beta-hydroxysteroid dehydrogenase type 1 (Homo sapiens) (UniProt P14061)
- Sequence (P14061 whole entry): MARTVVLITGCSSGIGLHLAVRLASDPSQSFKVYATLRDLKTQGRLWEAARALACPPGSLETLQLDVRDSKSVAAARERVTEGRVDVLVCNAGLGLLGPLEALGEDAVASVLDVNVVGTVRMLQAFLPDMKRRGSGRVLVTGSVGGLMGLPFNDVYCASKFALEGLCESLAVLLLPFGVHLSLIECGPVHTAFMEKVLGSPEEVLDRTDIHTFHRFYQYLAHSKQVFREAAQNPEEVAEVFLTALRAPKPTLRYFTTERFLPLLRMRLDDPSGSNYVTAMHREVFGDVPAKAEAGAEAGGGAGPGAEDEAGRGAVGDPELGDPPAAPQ
- test-description: Inhibition of human recombinant 17beta-HSD1 expressed in Sf9 insect cells at 1 uM
reported-property: inhibition (%)
Numbers only; they are read as %.

OCc1ccc(-c2ccc3cc(O)ccc3c2)cc1 13
Oc1cccc(-c2cnc3ccccc3c2)c1 18
O=C1CCCc2cc(-c3cccc(O)c3)ccc21 23
Oc1cccc(-c2ccc3ccccc3c2)c1 61

QUERY: Note down inhibition recorded for `O=C(O)c1cccc(-c2ccc3cc(O)ccc3c2)c1`
RESULT: 76

QUERY: Note down inhibition recorded for `Oc1cccc(-c2cnc3cc(O)ccc3c2)c1`
RESULT: 57

QUERY: Note down inhibition recorded for `Oc1cccc(-c2ccc3c(O)cccc3c2)c1`
RESULT: 23

QUERY: Note down inhibition recorded for `Oc1cncc(-c2ccc3cc(O)ccc3c2)c1`
RESULT: 58

QUERY: Note down inhibition recorded for `Oc1cccc(-c2ccc3ccc(O)cc3c2)c1`
RESULT: 62

QUERY: Note down inhibition recorded for `Oc1cccc(-c2ccc3cc(O)ccc3n2)c1`
RESULT: 63

QUERY: Note down inhibition recorded for `CC(=O)Nc1cccc(-c2ccc3cc(O)ccc3c2)c1`
RESULT: 19

QUERY: Note down inhibition recorded for `Oc1ccc2cc(-c3cccnc3)ccc2c1`
RESULT: 32

====

Reported IC50, 17-beta-hydroxysteroid dehydrogenase type 1 (Homo sapiens, UniProt P14061).
Numbers only; they are read as nM.

Oc1ccc(-c2ccc3c(O)cccc3c2)cc1 2420

QUERY: Answer with IC50 of `Oc1cccc(-c2ccc3cc(O)ccc3c2)c1` measured for 17-beta-hydroxysteroid dehydrogenase type 1 (Homo sapiens, UniProt P14061).
RESULT: 116

====

- target-entity: Estrogen receptor (Homo sapiens)
- test-description: Displacement of [3H]estradiol from human recombinant ERalpha relative to estradiol
Let's look at some molecules and their measured RBA.

Examples from the recorded data:
Oc1cccc(-c2ccc3cc(O)ccc3c2)c1 0.2%
Oc1cccc(-c2ccc3ccccc3c2)c1 0.01%
Oc1cncc(-c2ccc3cc(O)ccc3c2)c1 0.01%

Consider now this further molecule.
QUERY: Note down RBA recorded for `Oc1ccc(-c2ccc3c(O)cccc3c2)cc1`
RESULT: 5%

====

- target-entity: 17-beta-hydroxysteroid dehydrogenase type 1 (Homo sapiens) (UniProt P14061)
- test-description: Inhibition of human recombinant 17beta-HSD1 expressed in Sf9 insect cells at 100 nM
Let's look at some compounds and their measured inhibition.

Examples from the recorded data:
Oc1ccc2cc(-c3cccs3)ccc2c1 < 10%
O=C(O)c1cccc(-c2ccc3cc(O)ccc3c2)c1 36%
Oc1ccc2cc(-c3ccsc3)ccc2c1 < 10%
Oc1ccc(-c2ccc3cc(O)ccc3c2)cc1 < 10%
Nc1cccc(-c2ccc3cc(O)ccc3c2)c1 < 10%
Oc1ccc2cc(-c3cccnc3)ccc2c1 < 10%
CC(=O)Nc1cccc(-c2ccc3cc(O)ccc3c2)c1 < 10%
Oc1cccc(-c2ccc3ccccc3c2)c1 26%
Oc1ccc2cc(-c3ccccc3O)ccc2c1 < 10%
OCc1cccc(-c2ccc3cc(O)ccc3c2)c1 < 10%

QUERY: Note down inhibition recorded for `Oc1ccc2cc(-c3ccccc3)ccc2c1`
RESULT: < 10%

QUERY: Note down inhibition recorded for `Oc1cncc(-c2ccc3cc(O)ccc3c2)c1`
RESULT: 30%

QUERY: Note down inhibition recorded for `Oc1ccc(-c2cnc3cc(O)ccc3c2)cc1`
RESULT: < 10%

QUERY: Note down inhibition recorded for `Oc1cccc(-c2cnc3cc(O)ccc3c2)c1`
RESULT: 24%

QUERY: Note down inhibition recorded for `Oc1cccc(-c2ccc3cc(O)ccc3n2)c1`
RESULT: 14%

QUERY: Note down inhibition recorded for `Oc1cccc(-c2cnc3ccccc3c2)c1`
RESULT: < 10%

QUERY: Note down inhibition recorded for `O=[N+]([O-])c1cccc(-c2ccc3cc(O)ccc3c2)c1`
RESULT: < 10%

====

Let's look at some compounds and their measured RBA.
- target-entity: Estrogen receptor beta (Homo sapiens) (UniProt Q92731)
- Sequence (Q92731 whole entry): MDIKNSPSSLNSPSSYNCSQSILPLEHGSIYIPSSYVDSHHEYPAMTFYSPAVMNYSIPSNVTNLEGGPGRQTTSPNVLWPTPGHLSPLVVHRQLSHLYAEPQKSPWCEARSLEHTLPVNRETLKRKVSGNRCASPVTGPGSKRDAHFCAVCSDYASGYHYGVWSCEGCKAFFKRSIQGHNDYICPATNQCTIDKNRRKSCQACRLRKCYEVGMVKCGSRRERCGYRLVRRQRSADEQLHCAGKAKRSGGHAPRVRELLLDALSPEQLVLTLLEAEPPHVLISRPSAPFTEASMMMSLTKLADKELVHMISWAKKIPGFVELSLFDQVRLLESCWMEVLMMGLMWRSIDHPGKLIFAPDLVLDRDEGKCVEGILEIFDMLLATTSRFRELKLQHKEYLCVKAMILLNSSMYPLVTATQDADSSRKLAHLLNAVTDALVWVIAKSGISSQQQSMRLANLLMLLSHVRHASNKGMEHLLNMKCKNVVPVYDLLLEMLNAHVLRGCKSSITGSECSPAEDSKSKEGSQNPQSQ
- test-description: Displacement of [3H]estradiol from human recombinant ERbeta relative to estradiol
Numbers only; they are read as %.

Examples from the recorded data:
Oc1cncc(-c2ccc3cc(O)ccc3c2)c1 1
Oc1cccc(-c2ccc3ccccc3c2)c1 0.01
Oc1ccc(-c2ccc3c(O)cccc3c2)cc1 5

Consider now this further compound.
QUERY: Note down RBA recorded for `Oc1cccc(-c2ccc3cc(O)ccc3c2)c1`
RESULT: 0.8

====

- test-description: Apparent permeability across human Caco-2 cell membrane
- Format: ADME, cell-based
reported-property: Papp (×10⁻⁶ cm/s)
Numbers only; they are read as ×10⁻⁶ cm/s.

QUERY: Note down Papp recorded for `Oc1cccc(-c2ccc3cc(O)ccc3c2)c1`
RESULT: 8.9

From: ChEMBL document CHEMBL1142381
